Molecular target: mIL-10C149Y (Mus musculus, UniProt P18893, C167Y)
Construct: His8 tag (LEHHHHHHHH) from pET41b(+) (C); made in house
Sequence (P18893 19-178 C167Y): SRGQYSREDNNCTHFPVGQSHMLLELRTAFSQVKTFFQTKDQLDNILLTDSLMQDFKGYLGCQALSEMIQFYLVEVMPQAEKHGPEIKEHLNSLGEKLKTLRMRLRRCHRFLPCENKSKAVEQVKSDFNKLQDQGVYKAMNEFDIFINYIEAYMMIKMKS
Assay: Thermal denaturation by circular dichroism (CD), Kd estimate from two-state unfolding model
Format: binding, murine
Settings: calculated from thermal denaturation CD data; 2 μM mIL-10C149Y dimer, 4.5 μM mimetic; two-state unfolding model, lower affinity limit reported
Bridge positions count the residues as written; N and C are the ends. Square brackets hold non-standard residues; d marks the D form. Peptide text beside a SMILES is read from it. * marks the point of attachment. Trp(5-OH) = N[C@@H](Cc1c[nH]c2ccc(O)cc12)C(=O)O; Butanoyl(4-guanidino) = N=C(N)NCCCC(=O)*
outcome.measure: Kd (µM)
Report the value in µM with no unit label.

CC(=O)N[C@@H](CCCNC(=N)N)C(=O)N[C@H]1CCCCNC(=O)C[C@@H](C(=O)N[C@H]2CCCCNC(=O)C[C@@H](C(=O)N[C@@H](CCCNC(=N)N)C(=O)N[C@@H](C)C(N)=O)NC(=O)[C@H](C(C)C)NC(=O)[C@H](CCCCN)NC(=O)[C@H](CCCNC(=N)N)NC2=O)NC(=O)[C@H](Cc2ccc(O)cc2)NC(=O)[C@H](CCCNC(=N)N)NC(=O)[C@H](Cc2c[nH]c3ccccc23)NC1=O [M4] (Ac-RKWRYDKRKVDRA-NH2; lactam 2-6, 7-11) = 8.4

Attention now turns to another entry.
Value sought: Kd, system mIL-10C149Y (Mus musculus, UniProt P18893, C167Y), item CC(C)[C@@H]1NC(=O)[C@H](CCCCN)NC(=O)[C@H](CCCNC(=N)N)NC(=O)[C@@H](NC(=O)[C@@H]2CC(=O)NCCCC[C@H](NC(=O)CCCNC(=N)N)C(=O)N[C@@H](Cc3c[nH]c4ccc(O)cc34)C(=O)N[C@@H](CCCNC(=N)N)C(=O)N[C@@H](Cc3ccc(O)cc3)C(=O)N2)CCCCNC(=O)C[C@@H](C(=O)N[C@@H](CCCNC(=N)N)C(=O)N[C@@H](C)C(N)=O)NC1=O [M3] ({Butanoyl(4-guanidino)}-K[Trp(5-OH)]RYDKRKVDRA-NH2; lactam 1-5, 6-10) . Result: 6.7

----------
Target: mIL-10C149Y (Mus musculus, UniProt P18893, C167Y)
Construct: His8 tag (LEHHHHHHHH) from pET41b(+) (C); made in house
Sequence (P18893 19-178 C167Y): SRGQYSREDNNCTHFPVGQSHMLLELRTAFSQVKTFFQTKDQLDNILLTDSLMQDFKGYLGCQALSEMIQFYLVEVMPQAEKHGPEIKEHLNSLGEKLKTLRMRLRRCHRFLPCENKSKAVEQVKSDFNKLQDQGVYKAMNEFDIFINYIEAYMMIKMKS
Assay: Thermal denaturation by circular dichroism (CD), Kd estimate from two-state unfolding model
Type: binding, murine
Settings: calculated from thermal denaturation CD data; 2 μM mIL-10C149Y dimer, 4.5 μM mimetic; two-state unfolding model, lower affinity limit reported
Bridge positions count the residues as written; N and C are the ends. Peptide text beside a SMILES is read from it. * marks the point of attachment. Butanoyl(4-guanidino) = N=C(N)NCCCC(=O)*
outcome.measure: Kd (µM)
Report the value in µM with no unit label.

Noted for CC(C)[C@@H]1NC(=O)[C@H](CCCCN)NC(=O)[C@H](CCCNC(=N)N)NC(=O)[C@@H](NC(=O)[C@@H]2CC(=O)NCCCC[C@H](NC(=O)CCCNC(=N)N)C(=O)N[C@@H](Cc3c[nH]c4ccccc34)C(=O)N[C@@H](CCCNC(=N)N)C(=O)N[C@@H](Cc3ccc(O)cc3)C(=O)N2)CCCCNC(=O)C[C@@H](C(=O)N[C@@H](CCCNC(=N)N)C(=O)N[C@@H](C)C(N)=O)NC1=O [M2] ({Butanoyl(4-guanidino)}-KWRYDKRKVDRA-NH2; lactam 1-5, 6-10) : its Kd reads 5
